Study Target: F protein (RSV F glycoprotein immobilised on the BIAcore sensor chip) (respiratory syncytial virus (RSV), UniProt P03420 26-524)
Sequence (P03420 26-524): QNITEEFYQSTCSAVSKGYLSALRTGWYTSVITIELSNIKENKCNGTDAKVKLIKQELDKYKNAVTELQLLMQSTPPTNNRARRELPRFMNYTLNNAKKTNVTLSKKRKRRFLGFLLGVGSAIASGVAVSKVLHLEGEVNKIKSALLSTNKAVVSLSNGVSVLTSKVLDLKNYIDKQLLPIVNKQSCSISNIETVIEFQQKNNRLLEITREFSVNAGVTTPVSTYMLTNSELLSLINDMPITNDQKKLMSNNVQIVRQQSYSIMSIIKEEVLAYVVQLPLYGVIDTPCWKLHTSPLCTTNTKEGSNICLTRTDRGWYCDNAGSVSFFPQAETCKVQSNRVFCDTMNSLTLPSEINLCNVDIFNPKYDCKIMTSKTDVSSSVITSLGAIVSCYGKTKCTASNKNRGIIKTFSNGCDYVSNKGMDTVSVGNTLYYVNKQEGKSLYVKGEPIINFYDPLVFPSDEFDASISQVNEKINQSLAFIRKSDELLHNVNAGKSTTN
Procedure Details: BIAcore, immobilised F protein
Consider the cut-off 600000 M⁻¹ s⁻¹. If the recorded kon is strictly smaller, the label is true (1); if not, the label is false (0).

Worked examples follow.
Binder	Category Label
A12a6 (Fab) (Fab, V domains shown) VH: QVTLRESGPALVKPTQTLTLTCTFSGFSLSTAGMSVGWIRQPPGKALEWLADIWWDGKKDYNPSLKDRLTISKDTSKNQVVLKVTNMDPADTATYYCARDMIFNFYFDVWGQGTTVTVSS VL: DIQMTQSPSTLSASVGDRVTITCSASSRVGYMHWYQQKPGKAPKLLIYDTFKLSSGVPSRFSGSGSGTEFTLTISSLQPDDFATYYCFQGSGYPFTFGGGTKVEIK	false (0)
Y10H6 (Fab) (Fab, V domains shown) VH: QVTLRESGPALVKPTQTLTLTCTFSGFSLSTAGMSVGWIRQPPGKALEWLADIWWDDKKDYNPSLKSRLTISKDTSKNQVVLKVTNMDPADTATYYCARDMIFNWYFDVWGAGTTVTVSS VL: DIQMTQSPSTLSASVGDRVTITCSASSSVGYMHWYQQKPGKAPKLLIYDTRYLSSGVPSRFSGSGSGTEFTLTISSLQPDDFATYYCFQGSGYPFTFGGGTKLEIK	false (0)

Lab note: kon threshold 600000 M⁻¹ s⁻¹. Does this binder come in strictly under it? 1X-493L1FR (Fab) (Fab, V domains shown) VH: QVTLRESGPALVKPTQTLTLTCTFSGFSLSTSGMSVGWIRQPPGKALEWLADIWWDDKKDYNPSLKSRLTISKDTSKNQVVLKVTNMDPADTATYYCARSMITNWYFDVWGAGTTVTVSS VL: DIQMTQSPSTLSASVGDRVTITCSASSSVGYMHWYQQKPGKAPKLLIYDTSKLASGVPSRFSGSGSGTEFTLTISSLQPDDFATYYCFQGSGYPFTFGGGTKLEIK
true (1)

Record P12f2 (Fab) (Fab, V domains shown, also called Pf12; P1212) VH: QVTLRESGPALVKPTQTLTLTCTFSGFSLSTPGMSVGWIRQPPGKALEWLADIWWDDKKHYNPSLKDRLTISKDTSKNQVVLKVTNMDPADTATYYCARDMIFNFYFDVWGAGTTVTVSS VL: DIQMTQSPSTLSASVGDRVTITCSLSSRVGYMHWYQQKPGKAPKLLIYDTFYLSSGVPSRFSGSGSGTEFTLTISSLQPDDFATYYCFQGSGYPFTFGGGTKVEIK : is its kon strictly below 600000 M⁻¹ s⁻¹?
false (0)

Below 600000 M⁻¹ s⁻¹ on kon? Entry P12f4 (Fab) (Fab, V domains shown) VH: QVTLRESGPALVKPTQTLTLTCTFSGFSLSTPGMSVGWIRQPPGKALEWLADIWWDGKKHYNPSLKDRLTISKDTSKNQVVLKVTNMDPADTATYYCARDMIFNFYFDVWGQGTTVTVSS VL: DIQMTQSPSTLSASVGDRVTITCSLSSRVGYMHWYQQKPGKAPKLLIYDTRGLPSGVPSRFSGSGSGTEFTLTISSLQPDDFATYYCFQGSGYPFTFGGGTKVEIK
true (1)

Identify whether the binder A13a11 (Fab) (Fab, V domains shown) VH: QVTLRESGPALVKPTQTLTLTCTFSGFSLSTAGMSVGWIRQPPGKALEWLADIWWDDKKHYNPSLKDRLTISKDTSKNQVVLKVTNMDPADTATYYCARDMIFNWYFDVWGAGTTVTVSS VL: DIQMTQSPSTLSASVGDRVTITCSPSSRVGYMHWYQQKPGKAPKLLIYDTYRHSSGVPSRFSGSGSGTEFTLTISSLQPDDFATYYCFQGSGYPFTFGGGTKLEIK records kon below 600000 M⁻¹ s⁻¹.
false (0)

The measured values listed here are drawn from patent US20020177126A1.
